- Test system: Fibroblast
- assay.overview: Multiplex assay against human fibroblast
- Format: toxicity, cell-based
- measurement.setup: 24 h, 1 µM, compound concentration 1 uM, replicate 1
Classification field: enter condition met for Population Mitochondria Different-Phenotype (%) values not below 4%, condition not met for values below it.

[[record]]
molecule = "N#Cc1cc(F)cc(-c2nc(-c3ccc(F)cn3)no2)c1"
label_class = "condition not met"

[[record]]
molecule = "COC[C@@H](c1ccc(C(F)(F)F)cc1)N1CCN(C2(C)CCN(C(=O)c3c(C)ncnc3C)CC2)C[C@@H]1C.O=C(O)/C=C\\C(=O)O [VICRIVIROC MALEATE]"
label_class = "condition met"

[[record]]
molecule = "NCCc1cn(S(=O)(=O)c2c(Cl)nc3sccn23)c2ccccc12.O=C(O)C(=O)O"
label_class = "condition met"

[[record]]
molecule = "O=C1[C@H](Cc2ccc(O)cc2)N2C(=O)CCN(C(=O)NCc3ccccc3)[C@H]2CN1Cc1cccc2ccccc12"
label_class = "condition met"

[[record]]
molecule = "CN1CCN(c2cc(-c3ccccc3)nc(N)n2)CC1"
label_class = "condition not met"

[[record]]
molecule = "CCCOc1ccc2[nH]cc(C3=CCNCC3)c2n1.Cl"
label_class = "condition met"

[[record]]
molecule = "Br.CS(=O)(=O)Nc1c(O)ccc2c1CCCC2C1=NCCN1 (centres undefined)"
label_class = "condition not met"

